# Tested on: 931267-113-T-J1-PDC KRAS spheroid with HUVEC/MSC, viability
# Test: Anticancer human tumor 931267-113-T-J1-PDC patient-derived colon adenocarcinoma cell line growth inhibition [KRAS2]
# Condition notes: second compound 0.316 µM; first compound 0.01 µM; hits give low values
// reported viability, T/C for each item listed
Report the value in % with no unit label.

| Molecule | Target under test | Unit spec | viability, T/C |
| --- | --- | --- | --- |
| CN(C)C/C=C/C(=O)Nc1cc2c(Nc3ccc(F)c(Cl)c3)ncnc2cc1O[C@H]1CCOC1 + CNCc1ccccc1-c1csc(C(C)Nc2nc(C)nc3cc(OC)c(OC)cc23)c1 | 931267-113-T-J1-PDC KRAS spheroid with HUVEC/MSC, viability | % | 76.7 |

For CC(=O)Nc1cccc(-n2c(=O)n(C3CC3)c(=O)c3c(Nc4ccc(I)cc4F)n(C)c(=O)c(C)c32)c1 + CNCc1ccccc1-c1csc(C(C)Nc2nc(C)nc3cc(OC)c(OC)cc23)c1 , write its viability, T/C.
47.8

For Cn1ncnc1[C@H]1c2n[nH]c(=O)c3cc(F)cc(c23)N[C@@H]1c1ccc(F)cc1 + C=CC(=O)N1CCN(c2nc(=O)n(-c3c(C)ccnc3C(C)C)c3nc(-c4c(O)cccc4F)c(F)cc23)C(C)C1 , write its viability, T/C.
105

For CC(C)n1nc(-c2ccc3oc(N)nc3c2)c2c(N)ncnc21 + COc1cc2nc(C)nc(NC(C)c3cc(N)cc(C(F)(F)F)c3)c2cc1OC1CCOC1 , write its viability, T/C.
39.1

====

// reported viability, T/C for each item listed
# Test system: 931267-113-T-J1-PDC KRAS spheroid with HUVEC/MSC, viability
# Test: Anticancer human tumor 931267-113-T-J1-PDC cell line growth inhibition [KRAS2];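 further: compound exposure lasted 7 days before the readout; 100% = DMSO vehicle control viability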
# Condition notes: second compound 0.0316 µM; first compound 0.0316 µM; hits give low values
# Text: Multicellular complex tumor spheroid response to RAS pathway inhibitors in combination with a targeted agents in patient-derived cell lines with oncogenic KRAS variants from multiple cancer types A high-throughput screen of multi-cell type tumor spheroids was designed to identify active combinations of targeted small molecules and KRAS pathway inhibitors. […] Compounds. […] If the clinical Cmax for an agent had not been determined, the highest concentration tested was 10 microM. […]

| Compound | viability, T/C |
| --- | --- |
| CC(C)n1nc(-c2ccc3oc(N)nc3c2)c2c(N)ncnc21 + C=CC(=O)N1CCN(c2nc(OCC3CCCN3C)nc3c2CCN(c2cccc4cccc(C)c24)C3)CC1CC#N | 26.6% |
| O=C(c1cc(Cc2n[nH]c(=O)c3ccccc23)ccc1F)N1CCN(C(=O)C2CC2)CC1 + C=CC(=O)N1CCN(c2nc(OCC3CCCN3C)nc3c2CCN(c2cccc4cccc(C)c24)C3)CC1CC#N | 91% |

We now examine a further compound.
For COc1cc(Nc2ncc3c(n2)-c2ccc(Cl)cc2C(c2c(F)cccc2OC)=NC3)ccc1C(=O)O + C=CC(=O)N1CCN(c2nc(OCC3CCCN3C)nc3c2CCN(c2cccc4cccc(C)c24)C3)CC1CC#N , write its viability, T/C.
87.9%

====

# Tested on: 931267-113-T-J1-PDC KRAS spheroid with HUVEC/MSC, viability
# Test: Anticancer human tumor 931267-113-T-J1-PDC cell line growth inhibition [KRAS2]; active = viability on the fitted dose curve at most 10% of control; inactive = the rest;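 further: compound exposure lasted 7 days before the readout; 100% = DMSO vehicle control viability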
# Condition notes: second compound 3.16 µM; first compound 0.0316 µM
Please answer using one outcome listed in Yes for active, No for inactive

Worked examples follow.
| Compound | Target under test | Label class |
| --- | --- | --- |
| CC(=O)OC12COC1CC(O)C1(C)C(=O)C(O)C3=C(C)C(OC(=O)C(O)C(NC(=O)OC(C)(C)C)c4ccccc4)CC(O)(C(OC(=O)c4ccccc4)C21)C3(C)C (stereo not drawn) + COc1cc2nc(C)nc(NC(C)c3cc(N)cc(C(F)(F)F)c3)c2cc1OC1CCOC1 | 931267-113-T-J1-PDC KRAS spheroid with HUVEC/MSC, viability | No |
| COC(=O)c1ccc2c(C(=Nc3ccc(N(C)C(=O)CN4CCN(C)CC4)cc3)c3ccccc3)c(O)[nH]c2c1 + CNCc1ccccc1-c1csc(C(C)Nc2nc(C)nc3cc(OC)c(OC)cc23)c1 | 931267-113-T-J1-PDC KRAS spheroid with HUVEC/MSC, viability | Yes |

Consider now this further compound.
Outcome logged for CC(=O)Nc1cccc(-n2c(=O)n(C3CC3)c(=O)c3c(Nc4ccc(I)cc4F)n(C)c(=O)c(C)c32)c1 + CC1OCC2(CCN(c3cnc(Sc4ccnc(N)c4Cl)c(N)n3)CC2)C1N in this assay:
Yes

====

# System: 931267-113-T-J1-PDC KRAS spheroid with HUVEC/MSC, viability
# Test: Anticancer human tumor 931267-113-T-J1-PDC cell line growth inhibition [KRAS2];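 further: compound exposure lasted 7 days before the readout; 100% = DMSO vehicle control viability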
# Condition notes: second compound 0.316 µM; first compound 1 µM; hits give low values
// reported viability, T/C for each item listed
Report the value in % with no unit label.

Examples with answers:
| Compound | Unit spec | viability, T/C |
| --- | --- | --- |
| CCNC(=O)CC1N=C(c2ccc(Cl)cc2)c2cc(OC)ccc2-n2c(C)nnc21 (stereo not given) + CNCc1ccccc1-c1csc(C(C)Nc2nc(C)nc3cc(OC)c(OC)cc23)c1 | % | 45.7 |
| CC1COCCN1c1cc(-c2ccnn2C)c2ccnc(-c3ccn[nH]3)c2n1 (stereo not given) + C=CC(=O)N1CCN(c2nc(OCC3CCCN3C)nc3c2CCN(c2cccc4cccc(C)c24)C3)CC1CC#N | % | 18.9 |
| O=C(c1cc(Cc2n[nH]c(=O)c3ccccc23)ccc1F)N1CCN(C(=O)C2CC2)CC1 + C=CC(=O)N1CCN(c2nc(=O)n(-c3c(C)ccnc3C(C)C)c3nc(-c4c(O)cccc4F)c(F)cc23)C(C)C1 | % | 83.6 |
| CCNC(=O)CC1N=C(c2ccc(Cl)cc2)c2cc(OC)ccc2-n2c(C)nnc21 (stereo not given) + C=CC(=O)N1CCN(c2nc(OCC3CCCN3C)nc3c2CCN(c2cccc4cccc(C)c24)C3)CC1CC#N | % | 52.9 |

For CC(C)NCC(C(=O)N1CCN(c2ncnc3c2C(C)CC3O)CC1)c1ccc(Cl)cc1 (stereo not given) + CNCc1ccccc1-c1csc(C(C)Nc2nc(C)nc3cc(OC)c(OC)cc23)c1 , write its viability, T/C.
54.6

For CC(C)NCC(C(=O)N1CCN(c2ncnc3c2C(C)CC3O)CC1)c1ccc(Cl)cc1 (stereo not given) + C=CC(=O)N1CCN(c2nc(=O)n(-c3c(C)ccnc3C(C)C)c3nc(-c4c(O)cccc4F)c(F)cc23)C(C)C1 , write its viability, T/C.
75.1

For CC1(C)CCC(CN2CCN(c3ccc(C(=O)NS(=O)(=O)c4ccc(NCC5CCOCC5)c([N+](=O)[O-])c4)c(Oc4cnc5[nH]ccc5c4)c3)CC2)=C(c2ccc(Cl)cc2)C1 + C=CC(=O)N1CCN(c2nc(OCC3CCCN3C)nc3c2CCN(c2cccc4cccc(C)c24)C3)CC1CC#N , write its viability, T/C.
94.6

For CCN1CCN(Cc2ccc(Nc3ncc(F)c(-c4cc(F)c5nc(C)n(C(C)C)c5c4)n3)nc2)CC1 + COc1cc2nc(C)nc(NC(C)c3cc(N)cc(C(F)(F)F)c3)c2cc1OC1CCOC1 , write its viability, T/C.
37.4

For COC(=O)c1ccc2c(C(=Nc3ccc(N(C)C(=O)CN4CCN(C)CC4)cc3)c3ccccc3)c(O)[nH]c2c1 + C=CC(=O)N1CCN(c2nc(OCC3CCCN3C)nc3c2CCN(c2cccc4cccc(C)c24)C3)CC1CC#N , write its viability, T/C.
42.8

For CC1OCC2(CCN(c3cnc(Sc4ccnc(N)c4Cl)c(N)n3)CC2)C1N (stereo not given) + C=CC(=O)N1CCN(c2nc(=O)n(-c3c(C)ccnc3C(C)C)c3nc(-c4c(O)cccc4F)c(F)cc23)C(C)C1 , write its viability, T/C.
73.6

====

# Test system: 931267-113-T-J1-PDC KRAS spheroid with HUVEC/MSC, viability
# Test: Anticancer human tumor 931267-113-T-J1-PDC cell line growth inhibition [KRAS2];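 further: compound exposure lasted 7 days before the readout; 100% = DMSO vehicle control viability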
# Condition notes: second compound 0.0316 µM; first compound 1 µM; hits give low values
// reported viability, T/C for each item listed

Examples with answers:
| Molecule | Property | Data value |
| --- | --- | --- |
| CC1COCCN1c1cc(-c2ccnn2C)c2ccnc(-c3ccn[nH]3)c2n1 (stereo not drawn) + C=CC(=O)N1CCN(c2nc(OCC3CCCN3C)nc3c2CCN(c2cccc4cccc(C)c24)C3)CC1CC#N | viability, T/C | 18.1% |
| COc1cc(Nc2ncc3c(n2)-c2ccc(Cl)cc2C(c2c(F)cccc2OC)=NC3)ccc1C(=O)O + C=CC(=O)N1CCN(c2nc(OCC3CCCN3C)nc3c2CCN(c2cccc4cccc(C)c24)C3)CC1CC#N | viability, T/C | 75.6% |

We now examine a further molecule.
For CCN1CCN(Cc2ccc(Nc3ncc(F)c(-c4cc(F)c5nc(C)n(C(C)C)c5c4)n3)nc2)CC1 + C=CC(=O)N1CCN(c2nc(OCC3CCCN3C)nc3c2CCN(c2cccc4cccc(C)c24)C3)CC1CC#N , write its viability, T/C.
54%
